Values from patent US6087346A

System Name: sigma-1 receptor (Cavia porcellus)
Sequence (Q60492 whole entry): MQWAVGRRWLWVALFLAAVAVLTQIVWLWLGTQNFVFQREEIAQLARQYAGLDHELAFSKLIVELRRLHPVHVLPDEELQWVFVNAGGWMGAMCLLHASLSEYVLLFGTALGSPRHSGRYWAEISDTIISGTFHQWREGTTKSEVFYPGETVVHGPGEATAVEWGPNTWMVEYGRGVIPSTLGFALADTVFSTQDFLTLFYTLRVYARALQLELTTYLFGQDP
Measurement Context: pH 8
# key: entry, value: Ki

Compound: CN(CCCCCc1ccccc1)CCc1ccccc1
Ki [nM]: 0.25

Compound: CC1CCN(CCCCC(c2ccccc2)c2ccccc2)CC1
Ki [nM]: 0.1

Compound: c1ccc2c(c1)C1CC2C(N2CCCCC2)C1 (stereo not drawn)
Ki [nM]: 0.13

====

System Name: sigma receptor (sigma-1 and sigma-2 sites)
Test Description: Sigma receptor binding assay ([^3 H]DTG, guinea pig brain membrane homogenates)
Measurement Context: Table II; [^3 H]DTG 1.4 nM, guinea pig brain membranes, pH 7.4, 90 minutes room temperature; IC50 values indicated as Ki; read-out: Ki nM (± SEM)
# key: entry, value: Ki

Compound: O=C(CCCCN1CCCCC1)c1ccc(F)cc1 [Compound 18]
System Name: sigma receptor (sigma-1 and sigma-2 sites)
Ki / nM: 6.7
//
Compound: COc1cccc(C(=O)CCCCN2CCC(c3ccccc3)CC2)c1 [Compound 9]
System Name: sigma receptor (sigma-1 and sigma-2 sites)
Ki / nM: 1
//
Compound: COc1cccc(C(=O)CCCCN2CCCCC2)c1 [Compound 22]
System Name: sigma receptor (sigma-1 and sigma-2 sites)
Ki / nM: 20.7
//
Compound: O=C(CCCCN1CCC(c2ccccc2)CC1)c1ccc(Cl)cc1 [Compound 7]
System Name: sigma receptor (sigma-1 and sigma-2 sites)
Ki / nM: 0.5
